Attribution: ChEMBL document CHEMBL5252509

The entries below come with measured inhibition values attached.
molecular target: Serine/threonine-protein kinase Nek3 (Homo sapiens); experiment: Inhibition of NEK3 (unknown origin) at 1 uM relative to control
Please state the figure in %; there is no need to write the unit.

Solved cases below.
>  <query_smiles>
Nc1ncc(-c2cccnc2)c2scc(-c3ccc4c(c3)CCN4C(=O)Cc3ccccc3)c12

>  <inhibition [%]>
1

$$$$
>  <query_smiles>
Nc1nccc2scc(-c3ccc4c(c3)CCN4C(=O)Cc3ccccc3)c12

>  <inhibition [%]>
10

$$$$
>  <query_smiles>
Cn1cc(-c2cnc(N)c3c(-c4ccc5c(c4)CCN5C(=O)Cc4ccccc4)csc23)cn1

>  <inhibition [%]>
1

$$$$

// switching to the query compound
# assay system Serine/threonine-protein kinase Nek3 (Homo sapiens): give inhibition of Cn1cc(-c2ccc3c(c2)CCN3C(=O)Cc2cccc(Cl)c2)c2c(N)ncnc21
1
